target: HLA-DRB1*01:01 (Homo sapiens, UniProt P01903+P01911, A100R/D57E/F55L/F60I/F76Y/I96L/L162R/M171V/P40L/Q125E/R42F/V115G/Y59C); construct: EBV transformed homozygous cell lines were used as sources of MHC molecules; endogenous in cells; host or cells: EBV transformed homozygous cell lines; experiment: HLA class II peptide binding, inhibition of radiolabeled peptide binding to purified MHC; settings: citrullinated 15-mer (X); purified MHC, inhibition of radiolabeled peptide binding; dash = IC50 >40,000 nM; read-out: DRB1*01:01 binding capacity, Cit peptide (IC50 nM)
Square brackets hold non-standard residues; d marks the D form. Peptide text beside a SMILES is read from it. Cit = NC(=O)NCCC[C@H](N)C(=O)O
# maps each entry to its IC50
Write the value in nM as a bare number.

- Compound: "CC[C@H](C)[C@H](NC(=O)[C@H](CC(=O)O)NC(=O)[C@H](CCC(=O)O)NC(=O)[C@H](C)NC(=O)[C@H](CC(C)C)NC(=O)[C@H](CC(N)=O)NC(=O)[C@H](CC(=O)O)NC(=O)[C@H](CCCNC(N)=O)NC(=O)[C@H](CCC(=O)O)NC(=O)[C@@H](NC(=O)[C@H](CCC(=O)O)NC(=O)[C@@H](N)C(C)C)C(C)C)C(=O)N[C@@H](CCSC)C(=O)N[C@@H](CCCNC(=N)N)C(=O)N[C@@H](CC(C)C)C(=O)O [VEVEXDNLAEDIMRL] (H-VEVE[Cit]DNLAEDIMRL-OH)"
  IC50 [nM]: 27100

// query Which measured IC50 value corresponds to CSCC[C@H](NC(=O)[C@H](CCC(=O)O)NC(=O)[C@H](CCC(=O)O)NC(=O)[C@@H](N)CCC(=O)O)C(=O)N[C@@H](CCCNC(=N)N)C(=O)N[C@@H](CCC(=O)O)C(=O)N[C@@H](CC(C)C)C(=O)N[C@@H](CCCNC(=N)N)C(=O)N[C@@H](CCCNC(N)=O)C(=O)N[C@@H](CCC(N)=O)C(=O)N[C@H](C(=O)N[C@@H](CC(=O)O)C(=O)N[C@@H](CCC(N)=O)C(=O)N[C@@H](CC(C)C)C(=O)N[C@H](C(=O)O)[C@@H](C)O)C(C)C [EEEMRELRXQVDQLT] (H-EEEMRELR[Cit]QVDQLT-OH) ?
// result 686

// query Which measured IC50 value corresponds to CC(C)C[C@H](NC(=O)[C@H](C)NC(=O)[C@H](CO)NC(=O)CN)C(=O)N[C@@H](CCCNC(=N)N)C(=O)N1CCC[C@H]1C(=O)N[C@@H](CO)C(=O)N[C@H](C(=O)N[C@@H](CO)C(=O)N[C@@H](CCCNC(N)=O)C(=O)N[C@@H](CO)C(=O)N[C@@H](CC(C)C)C(=O)N[C@@H](Cc1ccc(O)cc1)C(=O)N[C@@H](C)C(=O)N[C@@H](CO)C(=O)O)[C@@H](C)O ?
// result 25

====

target: HLA-DRB1*01:01 (Homo sapiens, UniProt P01903+P01911, A100R/D57E/F55L/F60I/F76Y/I96L/L162R/M171V/P40L/Q125E/R42F/V115G/Y59C); construct: EBV transformed homozygous cell lines were used as sources of MHC molecules; endogenous in cells; host or cells: EBV transformed homozygous cell lines; assay: HLA class II peptide binding, inhibition of radiolabeled peptide binding to purified MHC; conditions: citrullinated 15-mer peptide (X = citrulline); purified HLA-DRB1*01:01; read-out: DRB1*01:01 binding capacity, Cit peptide (IC50 nM)
Square brackets hold non-standard residues; d marks the D form. Peptide text beside a SMILES is read from it. Cit = NC(=O)NCCC[C@H](N)C(=O)O
Assay endpoint: IC50 (nM)
Write the value in nM as a bare number.

// query Which measured IC50 value corresponds to CC(C)[C@H](NC(=O)[C@H](CCC(N)=O)NC(=O)[C@H](CCCNC(=N)N)NC(=O)[C@H](CCCNC(N)=O)NC(=O)[C@H](Cc1ccc(O)cc1)NC(=O)[C@H](CCC(=O)O)NC(=O)[C@@H](NC(=O)[C@H](CO)NC(=O)[C@H](CCC(=O)O)NC(=O)[C@H](CCC(N)=O)NC(=O)[C@H](CCCCN)NC(=O)[C@H](C)NC(=O)[C@@H](N)CCC(N)=O)[C@@H](C)O)C(=O)N[C@@H](CCC(N)=O)C(=O)N[C@@H](CO)C(=O)O [QAKQESTEYXRQVQS] (H-QAKQESTEY[Cit]RQVQS-OH) ?
// result 9030

// query Which measured IC50 value corresponds to CC(C)[C@H](NC(=O)CNC(=O)[C@@H](NC(=O)[C@@H]1CCCN1C(=O)CN)[C@@H](C)O)C(=O)N[C@H](C(=O)NCC(=O)N1CCC[C@H]1C(=O)N[C@@H](CCCCN)C(=O)NCC(=O)N[C@@H](C)C(=O)N[C@@H](CCCNC(N)=O)C(=O)NCC(=O)N[C@@H](C)C(=O)N[C@@H](CCC(N)=O)C(=O)O)[C@@H](C)O [GPTGVTGPKGAXGAQ] (H-GPTGVTGPKGA[Cit]GAQ-OH) ?
// result 569

// query Which measured IC50 value corresponds to CC(C)C[C@H](NC(=O)CNC(=O)[C@@H]1CCCN1)C(=O)N[C@@H](CCCNC(N)=O)C(=O)NCC(=O)N[C@@H](CC(C)C)C(=O)N1CCC[C@H]1C(=O)NCC(=O)N[C@@H](CCCCN)C(=O)N[C@@H](CC(=O)O)C(=O)NCC(=O)N[C@@H](CCC(=O)O)C(=O)N[C@H](C(=O)NCC(=O)N[C@@H](C)C(=O)O)[C@@H](C)O [PGLXGLPGKDGETGA] (H-PGL[Cit]GLPGKDGETGA-OH) ?
// result 109
